Answer each item with its documented pKd.
# measured-on: T1, BoNT/B light chain (recombinant) (Clostridium botulinum, UniProt P10844 1-441)
# T1 sequence: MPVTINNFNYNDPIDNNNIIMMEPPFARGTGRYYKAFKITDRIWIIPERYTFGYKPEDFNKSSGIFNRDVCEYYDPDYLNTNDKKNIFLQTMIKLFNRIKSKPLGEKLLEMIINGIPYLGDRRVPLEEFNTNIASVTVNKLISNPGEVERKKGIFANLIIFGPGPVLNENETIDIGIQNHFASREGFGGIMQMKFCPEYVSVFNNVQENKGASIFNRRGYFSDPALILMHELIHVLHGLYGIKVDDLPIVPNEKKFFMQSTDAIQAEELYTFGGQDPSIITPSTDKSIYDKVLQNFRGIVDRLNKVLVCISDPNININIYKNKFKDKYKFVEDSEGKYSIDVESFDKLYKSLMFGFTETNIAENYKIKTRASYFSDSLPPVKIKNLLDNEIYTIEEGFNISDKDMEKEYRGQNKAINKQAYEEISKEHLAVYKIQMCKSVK
# procedure-summary: yeast scFv FACS
The read-out pKd is expressed as -log10 of concentration in moles per litre.

Looking up 31E2 scFv (scFv, mouse) scFv: EVKLVESGAELVRPGASVKLSCTASGFNIKDDYVHWVKQRPEQGLEWIGRIDPEDGETKYAPKFQGKATITADTSSNTAYLQLSSLTSEDTAVYYCALWSNWYFDVWGAGTTVTVSSVDLKSGGSTSGSGKPGSGEGSSGSAREIVLTQSPAIMSASPGEKVTMTCRASSSVSYMHWYQQKPGSSPKPWIYATSNLASGVPARFSGSGSGTSYSLTISRVEAEDAATYYCQQWTSNPPTFGGGTKLEIK , I found its pKd recorded as 7.77

Looking up 31C3 scFv (scFv, mouse) scFv: EVKLVETGPELKKPGETVKISCKASGYTFTNYGMNWVKQAPGKGLKWMGWINTNTGEPTYAEEFKGRFAFSLETSASTAFLQINNLKNEDTATYFCARGPIYYGTSYRFFDVWGTGTSVTVSSVDLKSGGSTSGSGKPGSGEGSSGSARQIVLTQSPAIMSASPGEKVTMTCRASSSVSSSYLHWYQQKPGSSPKLWIYSTSNLASGVPARFSGSGSGTSYSLTISRMEAEDAATYFCQQWSSFPPTFGGGTKLELK , I found its pKd recorded as 8.28

Looking up 19D2 scFv (scFv, mouse) scFv: EVQLQQSGGELARPGSSVKLSCKASGYSFTGYSLTWVKQTPGQGLEWIGEIYPRSGNTYYNENFQGKATLTADESSSTAYMELRSLTSEDSAVYFCARDFYDYDGGGRGYWGQGTTLTVSSVDLKSGGSTSGSGKPGSGEGSSGSARDIVMTQTPAIMSASPGEKVTITCSASSSVSYMHWYQQKPGTSPKLWIYSTSNLASGVPARFSGSGSGTSYSLTISRMEAEDAATYYCQQRSSYPYTFGGGTKLEIK , I found its pKd recorded as 8.24

Looking up 19D22 scFv (scFv, mouse) scFv: QIQLLQSGAELVRPGTSVKMSCKAAGYPFTSYWMGWVKQRPGHGLEWIGDIYPGGPYTNYNEKFKGKATLTADTSSSTAYMQFSSLTSEDSAIYYCALYGQVGSYAMDYWGQGTSVTVSSVDLKSGGSTSGSGKPGSGEGSSGSARQIVLTQSPAIMSASPGEKVTMTCSASSSVSYMYWYQQKPGSSPRLLIYDTSNLASGVPVRFSGSGSGTSYSLTISRMEAEDAATYYCQQWSSYPPITFGAGTKLEIK , I found its pKd recorded as 7.67

Looking up 19B6 scFv (scFv, mouse) scFv: QVQLQQSGAELVKPGASVKISCKASGYTFTDNYINWVKQRPGQGLEWIGWIHPGSGNAKYNEKFRAKATLTVDTSSNTAYMQLSSLTSEDSAVYFCARVGFRVNFDYWGQGTTLTVSSVDLKSGGSTSGSGKPGSGEGSSGSARQIVLTQSPAIMSASPGEKVTMTCSASSSLSYVHWYQQKPGSSPKPWIYATSNLVSGVPARFSGSRSGTSYSLTISSMEAEDAATYYCQQWSSYPPTFGAGTKLEIK , I found its pKd recorded as 8.63
